systemUnderTest: UniProtKB P10635
Sequence (P10635 whole entry): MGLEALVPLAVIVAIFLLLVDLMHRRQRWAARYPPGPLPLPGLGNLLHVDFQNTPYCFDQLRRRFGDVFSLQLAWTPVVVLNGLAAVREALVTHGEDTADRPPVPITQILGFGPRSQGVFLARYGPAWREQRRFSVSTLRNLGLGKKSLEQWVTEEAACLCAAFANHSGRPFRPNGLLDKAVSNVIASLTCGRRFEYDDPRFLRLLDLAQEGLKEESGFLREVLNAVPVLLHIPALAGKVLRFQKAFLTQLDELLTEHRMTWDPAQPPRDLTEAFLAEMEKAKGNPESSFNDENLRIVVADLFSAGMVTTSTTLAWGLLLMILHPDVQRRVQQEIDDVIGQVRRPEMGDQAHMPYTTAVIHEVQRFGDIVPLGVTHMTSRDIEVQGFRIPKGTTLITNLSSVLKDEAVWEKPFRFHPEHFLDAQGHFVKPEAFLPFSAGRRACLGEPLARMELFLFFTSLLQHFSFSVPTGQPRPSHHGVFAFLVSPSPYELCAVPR
assayProtocol: Cytochrome P450 inhibition assay, recombinant CYP2D6 (MAMC substrate)
Assay type: in vitro ADME
assayConditions: recombinant enzyme
readoutType: pIC50
Quick note: pIC50 values are minus log10 of concentrations in mol/L.

As a guide, the following entries are already answered.
[[record]]
molecule = "CNC[C@H](c1ccc2ccccc2c1)[C@H](O)c1cncc(OC)c1"
readouttype = "pIC50"
numericresult = 6.09

[[record]]
molecule = "CNC[C@H](C[C@H](O)c1ccccc1)c1ccc2ccccc2c1"
readouttype = "pIC50"
numericresult = 5.92

[[record]]
molecule = "CNC[C@H](c1ccc(Cl)c(Cl)c1)[C@H](O)c1cccc(N(C)C)c1 (single isomer, unassigned)"
readouttype = "pIC50"
numericresult = 6.11

[[record]]
molecule = "CNC[C@@H](c1ccc(Cl)c(Cl)c1)[C@@H](O)c1cncc(OC)c1"
readouttype = "pIC50"
numericresult = 5.96


--- query ---
// lookup pIC50 for CNC[C@@H](Cc1ccc(C)s1)c1ccc2ccccc2c1
6.00
